B1: glmS ribozyme (parent)
chain: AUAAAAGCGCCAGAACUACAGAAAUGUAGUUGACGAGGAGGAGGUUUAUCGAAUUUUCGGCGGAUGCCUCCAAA

# Variants of: B1
# measurement_description: self-cleavage kobs at 2500 uM GlcN6P; higher = faster cleavage; RNA array
# test_parameters: with glucosamine-6-phosphate
Variants at the floor of the assay were thinned out.
outcome_measure: self-cleavage kobs at 2500 uM GlcN6P

>>> df
            mutant_name        result
 0        G9A U46G G62A   < 1e-05 s⁻¹
 1       A39U A42C U45G  0.000613 s⁻¹
 2    A6C C8G A14C A48C   < 1e-05 s⁻¹
 3       C10A G62U C70G  0.000143 s⁻¹
 4       C34G U57G C70G   0.00021 s⁻¹
 5  A39G A64C U69G C71U   < 1e-05 s⁻¹
 6  A14U U30C G62C U69G   < 1e-05 s⁻¹
 7            G44C A48U   < 1e-05 s⁻¹
 8       G35A U56A C68G   < 1e-05 s⁻¹
 9   G7U G41U U46A G62U   < 1e-05 s⁻¹
10       G37C A64C C68U   < 1e-05 s⁻¹

Data provenance: the supplement of paper PMC7125110
